# Test system: naïve BV2 microglial cells
# assay_summary: Abeta42 uptake assay in microglial cells, 24-hour pre-treatment protocol
# Assay type: cell-based, murine
# condition_notes: Mus musculus, BV-2, following 24 hours of compound pre-treatment (FIG. 26)
pEC50: −log10 of the molar value.
metric: pEC50

Exercise: I am curious: what pEC50 value has been reported for O=C(O)/C=C\C(=O)O.OC1CN(CCCOCCc2ccc3sccc3c2)C1 [Compound 817MA, maleate] ?
Solution: ~4.70

Data origin: patent US20200206187A1
